tested on: RARa:RXR (NR concentration 270 nM, RXRa partner concentration 90 nM); test: PBM binding z-score (relative to random genomic background probes); higher = stronger binding; sequences stand for … in GC…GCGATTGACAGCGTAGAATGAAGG
Label scheme for PBM binding z-score: lower than 2 is Not met, 2 and above is Met.

# count of solved cases: 10
[
  {
    "seqString": "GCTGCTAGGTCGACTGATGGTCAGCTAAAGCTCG",
    "targetOrTestSystem": "RARa:RXR (NR concentration 270 nM, RXRa partner concentration 90 nM)",
    "categoryLabel": "Not met"
  },
  {
    "seqString": "CGAACTAGGTAAAAGGACAGTGAAAGGCGACGTA",
    "targetOrTestSystem": "RARa:RXR (NR concentration 270 nM, RXRa partner concentration 90 nM)",
    "categoryLabel": "Not met"
  },
  {
    "seqString": "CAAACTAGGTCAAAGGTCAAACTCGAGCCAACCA",
    "targetOrTestSystem": "RARa:RXR (NR concentration 270 nM, RXRa partner concentration 90 nM)",
    "categoryLabel": "Met"
  },
  {
    "seqString": "CGTCAAAGTTAAAGGTAACGTAACAGAAAGCAGC",
    "targetOrTestSystem": "RARa:RXR (NR concentration 270 nM, RXRa partner concentration 90 nM)",
    "categoryLabel": "Not met"
  },
  {
    "seqString": "ACTCGGAGGACAAACGTCAGAGCTACGCCAGTGA",
    "targetOrTestSystem": "RARa:RXR (NR concentration 270 nM, RXRa partner concentration 90 nM)",
    "categoryLabel": "Not met"
  },
  {
    "seqString": "CATACAGGGTAAGCTAGGCCAGAGTAGGGACGGC",
    "targetOrTestSystem": "RARa:RXR (NR concentration 270 nM, RXRa partner concentration 90 nM)",
    "categoryLabel": "Not met"
  },
  {
    "seqString": "CGTCCAAGGTCACCAGGTCAGTGAAAGCGACGTG",
    "targetOrTestSystem": "RARa:RXR (NR concentration 270 nM, RXRa partner concentration 90 nM)",
    "categoryLabel": "Met"
  },
  {
    "seqString": "ATACGTAGGTTATCGGGTCATTCAGTTTGCGCAT",
    "targetOrTestSystem": "RARa:RXR (NR concentration 270 nM, RXRa partner concentration 90 nM)",
    "categoryLabel": "Met"
  },
  {
    "seqString": "CGAACTAGGTCAAAGGACAGAGAAAGGCGACGTA",
    "targetOrTestSystem": "RARa:RXR (NR concentration 270 nM, RXRa partner concentration 90 nM)",
    "categoryLabel": "Met"
  },
  {
    "seqString": "ATATGTAGGTTACGTCCGGGTCATTCAGGCTATG",
    "targetOrTestSystem": "RARa:RXR (NR concentration 270 nM, RXRa partner concentration 90 nM)",
    "categoryLabel": "Met"
  }
]

Ask | For this sequence, is measured PBM binding z-score 2 or higher? CCGAGTAGGTTACGAGGGGGCAATCAGTGCGAAT
Reply | Met

Recorded values, source the supplement of paper PMC6555819.
